assay-summary: Cytotoxicity against mouse HT-22 cells assessed as cell viability at 5 uM after 48 hrs by CCK8 assay
Type: toxicity, cell-based
condition-description: read-out: Activity
Kindly supply the reported viability at 48 h, 5 µM values for the records listed here.
Give bare numbers, in %.

molecule | readout-units | viability at 48 h, 5 µM
CC12CC3CC(C)(C1)CC(NCCOCCOCCOCCOc1ccc(N4c5ccccc5N(c5ccccc5)c5c4c4ccccc4c4ccccc54)cc1)(C3)C2 | % | 45.9
CC12CC3CC(C)(C1)CC(N)(C3)C2 [MEMANTINE] | % | 13.9

[ask] I'd like to know its viability at 48 h, 5 µM. The molecule in question is CC12CC3CC(C)(C1)CC(NCCOCCOCCOCCO)(C3)C2
[reply] 20.1

Hello, the source for this data is ChEMBL document CHEMBL5143718, in case you need it.
